Test system: 786-0
Assay: NCI tumour cell line growth inhibition, 48 h
Activity calls are given as the source filed them. Rule as the data show it: active = GI50 up to about 1.1 µM and inactive = higher.
Assign GI50 to each entry below.

| molecule | test_target | GI50 |
| --- | --- | --- |
| COc1cc(O)c2c(=O)c(OC)c(-c3ccc4c(c3)OCO4)oc2c1 | 786-0 | 15.3 µM (inactive) |

For each of the molecules below, note its GI50.
1. O=C(O)COc1cc(-c2ccccc2F)nc2cc3c(cc12)OCO3
2. NNS(=O)(=O)c1ccc(/C=C2\NC(=O)NC2=O)cc1
3. O=C(NNC(=O)c1ccccc1O)c1ccco1
4. c1ccc2c3nc(C4CCCC4)nc-3c(NC3CCCC3)[nH]c2c1

Data returned:
1: > 100 µM (inactive); 2: > 100 µM (inactive); 3: > 100 µM (inactive); 4: 8.07 µM (inactive)
